# System: Escherichia coli
# EXPERIMENTAL_PROTOCOL: Antibacterial activity against Escherichia coli NRRL B-3708 at <= 60 to 120 uM
# Format: functional
The source made the active and inactive calls. The calls are words filed in the database; no cut-off is given here.
MEASUREMENT_LABEL: Activity

Reference set, count: 5
N[C@H]1[C@H](Oc2ccccc2C2=N[C@H](C(=O)N[C@@H](CO)C(=O)N[C@H](CCCN(O)C=O)C(=O)NCCC(=O)N[C@@H]3CCCN(O)C3=O)CO2)O[C@H](CO)[C@@H](O)[C@@H]1O :: inactive
C[C@@H](CO)NC(=O)c1ccccc1O[C@@H]1O[C@H](CO)[C@@H](O)[C@H](O)[C@H]1N :: inactive
NC(=O)[C@@H]1COC(c2ccccc2O[C@@H]2O[C@H](CO)[C@@H](O)[C@H](O)[C@H]2O)=N1 :: inactive
C[C@H](CO)NC(=O)c1ccccc1O[C@@H]1O[C@H](CO)[C@@H](O)[C@H](O)[C@H]1N :: inactive
C[C@H](CO)NC(=O)c1ccccc1O[C@@H]1O[C@H](CO)[C@@H](O)[C@H](O)[C@H]1O :: inactive

What Activity value was documented for this molecule, "N[C@H]1[C@H](Oc2ccccc2C(=O)NC(CO)CO)O[C@H](CO)[C@@H](O)[C@@H]1O" ?
inactive

What Activity value was documented for this molecule, "C[C@@H](CO)NC(=O)c1ccccc1O" ?
inactive

What Activity value was documented for this molecule, "O=C(NC(CO)CO)c1ccccc1O" ?
inactive
